- Test system: Bladder 5637 cells viability, CellTiter-Glo, 72 h
- ASSAY TEXT: viability of human bladder carcinoma cells – cell-based, set 3, cytotoxicity control for bacterial capsule biogenesis inhibitors, dose response (AID 504831)
The reader will find reported CC50 values listed item by item below.

Example compounds with recorded CC50:
O=C(Nc1cc(-c2ccccc2)sc1C(=O)O)c1cccs1	89.3 µM
O=C(Nc1cc(-c2ccccc2)sc1C(=O)O)c1ccc(Cl)s1	71.5 µM

With those in mind, consider the next compound.
Give a short answer stating reported CC50 for "Cc1ccc(C(=O)Nc2cc(-c3ccccc3)sc2C(=O)O)s1" . 63.6 µM

* * *

- Tested on: Bladder 5637 cells viability, CellTiter-Glo, 72 h
- ASSAY TEXT: viability of human bladder carcinoma cells – cell-based, set 3, cytotoxicity control for bacterial capsule biogenesis inhibitors, dose response (AID 504831)
Measured CC50 accompanies every entry in the list below.

Would you please look over these solved cases?
O=C(Nc1cc(-c2ccccc2)sc1C(=O)O)c1cc(Cl)c2c(c1)OCCO2	242 µM
O=C(Nc1cc(-c2ccccc2)sc1C(=O)O)c1ccc(Br)o1	104 µM
O=C(Nc1cc(-c2ccccc2)sc1C(=O)O)c1cccc(F)c1	76.9 µM
O=C(Nc1cc(-c2ccccc2)sc1C(=O)O)c1cc2ccccc2o1	167 µM

Output CC50 of "O=C(Nc1cc(-c2ccccc2)sc1C(=O)O)c1ccc2c(c1)OCCO2" 82.1 µM

* * *

- System: Bladder 5637 cells viability, CellTiter-Glo, 72 h
- ASSAY TEXT: viability of human bladder carcinoma cells – cell-based, set 3, cytotoxicity control for bacterial capsule biogenesis inhibitors, dose response (AID 504831)
PROPERTY LABEL: CC50

Completed entries (count: 7):
CCOc1ccc(-c2cc(NC(=O)c3ccc(OC)c(OC)c3)c(C(=O)O)s2)cc1	82.8 µM
COC(=O)c1sc(-c2ccccc2)cc1NC(=O)c1c(F)cccc1F	10.4 µM
O=C(Nc1cc(-c2ccccc2)sc1C(=O)O)c1cccc(Cl)c1	52.6 µM
Cc1onc(-c2ccccc2)c1C(=O)Nc1cc(-c2ccccc2)sc1C(=O)O	52.6 µM
CCOc1ccc(-c2cc(NC(=O)c3cccc(Cl)c3)c(C(=O)O)s2)cc1	83.9 µM
O=C(O)c1sc(-c2ccccc2)cc1NC(=O)C1CCCC1	169 µM
Cc1c(C(=O)Nc2cc(-c3ccccc3)sc2C(=O)O)oc2ccccc12	48.7 µM

Now for a further compound.
Determine from records and report CC50 for "O=C(O)c1sc(-c2ccccc2)cc1NC(=O)C1CCCCC1" 115 µM

Source of measurements: PubChem BioAssay AID504831
